All values here come from patent US9024071B2.

5HT2C (Homo sapiens) pKi data
Sequence (P28335 33-458): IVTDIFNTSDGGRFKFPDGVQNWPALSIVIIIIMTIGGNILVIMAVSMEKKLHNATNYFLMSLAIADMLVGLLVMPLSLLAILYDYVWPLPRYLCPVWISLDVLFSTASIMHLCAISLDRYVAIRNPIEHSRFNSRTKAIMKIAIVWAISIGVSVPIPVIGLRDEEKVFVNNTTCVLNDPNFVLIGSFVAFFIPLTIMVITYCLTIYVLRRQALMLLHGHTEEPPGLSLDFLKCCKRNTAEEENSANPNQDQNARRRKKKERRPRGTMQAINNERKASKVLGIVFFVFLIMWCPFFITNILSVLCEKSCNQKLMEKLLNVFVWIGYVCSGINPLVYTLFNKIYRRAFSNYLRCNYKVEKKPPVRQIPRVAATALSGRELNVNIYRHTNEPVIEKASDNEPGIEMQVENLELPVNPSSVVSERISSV
Give only the number. pKi is defined as minus log10 of concentration in molar units.

Input line: Look at this compound and give its reported pKi. CN(C)[C@@H]1Cc2ccccc2[C@@H](C2CCCCC2)C1 [(−)-trans-CAT]
Output line: 7.86

Input line: Look at this compound and give its reported pKi. CN(C)[C@H]1Cc2ccccc2[C@H](C2CCCCC2)C1 [(+)-trans-CAT]
Output line: 7.54

* * *

target: UniProt P28223; test: PLC activity/[3H]-IP formation, 5HT2A; settings: inhibition of basal (constitutive) [3H]-IP formation
value-type: IC50 (nM)
Form entry: value (nM) — number only.

Input line: Look at this compound and give its reported IC50. CN(C)[C@@H]1Cc2ccccc2[C@@H](C2CCCCC2)C1 [(−)-trans-CAT]
Output line: 130

* * *

biological target: 5HT2B (Homo sapiens, UniProt P41595); experiment: PLC activity/[3H]-IP formation, 5HT2B; conditions: inhibition of basal (constitutive) [3H]-IP formation
Sequence (P41595 whole entry): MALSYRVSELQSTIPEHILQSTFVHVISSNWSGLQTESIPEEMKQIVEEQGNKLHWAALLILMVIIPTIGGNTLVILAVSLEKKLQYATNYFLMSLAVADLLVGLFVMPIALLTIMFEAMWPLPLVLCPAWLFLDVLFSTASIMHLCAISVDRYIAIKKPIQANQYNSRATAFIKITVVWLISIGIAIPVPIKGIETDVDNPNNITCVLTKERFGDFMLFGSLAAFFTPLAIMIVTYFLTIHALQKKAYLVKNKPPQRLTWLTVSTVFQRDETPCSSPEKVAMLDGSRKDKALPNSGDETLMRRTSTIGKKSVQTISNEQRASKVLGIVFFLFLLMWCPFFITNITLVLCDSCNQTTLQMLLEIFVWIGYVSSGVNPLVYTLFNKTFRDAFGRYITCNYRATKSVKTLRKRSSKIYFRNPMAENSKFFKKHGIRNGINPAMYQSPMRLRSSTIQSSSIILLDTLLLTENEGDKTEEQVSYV
value-type: pIC50
Give only the number. pIC50 is defined as minus log10 of concentration in molar units.

Input line: Look at this compound and give its reported pIC50. CN(C)[C@@H]1Cc2ccccc2[C@@H](C2CCCCC2)C1 [(−)-trans-CAT]
Output line: 6.60

* * *

5HT2A (Homo sapiens) Ki data
Sequence (P28223 whole entry): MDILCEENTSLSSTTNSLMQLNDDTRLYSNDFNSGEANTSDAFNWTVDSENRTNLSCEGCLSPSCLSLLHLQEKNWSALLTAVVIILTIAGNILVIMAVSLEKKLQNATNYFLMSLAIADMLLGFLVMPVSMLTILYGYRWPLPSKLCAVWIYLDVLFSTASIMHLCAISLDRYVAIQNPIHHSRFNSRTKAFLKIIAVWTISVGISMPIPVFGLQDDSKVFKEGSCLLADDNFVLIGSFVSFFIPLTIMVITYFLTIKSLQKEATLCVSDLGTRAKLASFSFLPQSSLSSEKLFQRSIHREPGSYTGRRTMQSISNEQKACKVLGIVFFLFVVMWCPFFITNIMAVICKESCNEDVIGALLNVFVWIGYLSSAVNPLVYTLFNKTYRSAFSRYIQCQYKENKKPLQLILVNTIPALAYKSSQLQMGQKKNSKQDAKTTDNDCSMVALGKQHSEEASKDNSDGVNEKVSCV

| compound | measured-on | reported-measurement |
| --- | --- | --- |
| CN(C)[C@H]1Cc2ccccc2[C@H](C2CCCCC2)C1 [(+)-trans-CAT] | 5HT2A (Homo sapiens) | 78.2 nM |

From here, focus on the item given below.
Input line: Form: Entry = CN(C)[C@@H]1Cc2ccccc2[C@@H](C2CCCCC2)C1 [(−)-trans-CAT] | System = 5HT2A (Homo sapiens) | Ki = ____
Output line: 1.61 nM
